measured.on: GIST430/654 cell line expressing mutated constitutively active cKIT receptor tyrosine kinase (Δ560-576 deletion and V654A point mutation) (Homo sapiens, UniProt P10721, DEL560-576/V654A)
Construct: endogenous in cells
Sequence (P10721 with tags, fused parts or gaps DEL560-576/V654A): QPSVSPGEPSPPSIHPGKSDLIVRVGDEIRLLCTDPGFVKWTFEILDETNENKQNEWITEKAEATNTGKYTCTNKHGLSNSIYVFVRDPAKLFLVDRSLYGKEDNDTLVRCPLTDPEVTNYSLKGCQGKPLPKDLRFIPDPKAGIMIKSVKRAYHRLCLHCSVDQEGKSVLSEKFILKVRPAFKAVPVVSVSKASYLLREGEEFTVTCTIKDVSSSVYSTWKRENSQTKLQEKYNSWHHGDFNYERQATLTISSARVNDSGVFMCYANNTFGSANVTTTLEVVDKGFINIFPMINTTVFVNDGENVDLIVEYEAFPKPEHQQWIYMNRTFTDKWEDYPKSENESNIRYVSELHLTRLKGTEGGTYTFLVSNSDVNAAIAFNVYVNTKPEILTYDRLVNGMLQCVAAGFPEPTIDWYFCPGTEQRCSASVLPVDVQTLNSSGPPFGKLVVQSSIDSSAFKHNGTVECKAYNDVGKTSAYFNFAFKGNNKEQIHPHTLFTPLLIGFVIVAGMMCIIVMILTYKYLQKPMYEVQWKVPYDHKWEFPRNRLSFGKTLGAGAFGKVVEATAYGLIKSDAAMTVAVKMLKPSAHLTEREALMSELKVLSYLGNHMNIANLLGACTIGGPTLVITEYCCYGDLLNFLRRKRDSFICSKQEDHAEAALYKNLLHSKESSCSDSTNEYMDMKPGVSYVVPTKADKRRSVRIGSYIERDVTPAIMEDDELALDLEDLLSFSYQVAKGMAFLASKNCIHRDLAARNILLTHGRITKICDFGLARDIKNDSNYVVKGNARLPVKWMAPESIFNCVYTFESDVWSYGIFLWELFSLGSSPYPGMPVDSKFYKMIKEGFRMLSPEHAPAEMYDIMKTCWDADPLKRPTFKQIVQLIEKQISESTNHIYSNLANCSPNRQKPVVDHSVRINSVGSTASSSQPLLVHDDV
test.description: Cellular cKIT autophosphorylation (phospho-Y307-cKIT, Luminex bead assay) in GIST430/654 cells
assay.context: compounds 45 min, read-out: GIST 430/654 IC50
Measured pIC50, listed per entry.
As a rule, pIC50 stands for the negative log10 of the concentration, concentration in M.

Completed entries (count: 3):
[[record]]
chemical_string = "Cn1ncc(-c2ccc(CNc3cc(-c4cnc5cc(OCC(C)(C)O)ccn45)ncn3)cc2)n1"
quantitative_result = 7.19

[[record]]
chemical_string = "Cn1cc(-c2ccc(CNc3cc(-c4cnc5cc(N6CCN(C7COC7)CC6)ccn45)ncn3)cc2)cn1"
quantitative_result = 7.20

[[record]]
chemical_string = "CNC1CN(c2ccn3c(-c4cc(NCc5ccc(-c6cnn(C)c6)cc5)ncn4)cnc3c2)C1"
quantitative_result = 6.85


// recorded pIC50 for COCCn1ncc(-c2ccc(CNc3cc(-c4cnc5cc(OC)ccn45)ncn3)cc2)n1 : 7.02
